- measurement target: human recombinant HDAC6 (Homo sapiens)
- Construct: purchased Calbiochem Inc. 382180
- method summary: HDAC6 enzyme activity inhibition (HDAC Fluorimetric Drug Discovery Kit)
- Assay type: biochemical
- measurement setup: HDAC6 over HDAC1
measured endpoint: HDAC6 selectivity (fold)

// worked examples, HDAC6 selectivity (fold) included
Fc1cc(-c2nnc(C(F)F)o2)ccc1Cn1cc(-c2cncc(Br)c2)nn1 [Compound 16930]: 1043
CCN1CCN(c2cccc(-c3cn(Cc4ccc(-c5nnc(C(F)F)o5)cc4F)nn3)c2F)CC1 [Compound 4577]: 2688
Fc1cc(-c2nnc(C(F)F)o2)ccc1Cn1cc(-c2ccc(Cl)nc2)nn1 [Compound 16781]: 546

A. Fc1cc(-c2nnc(C(F)F)o2)ccc1Cn1cc(-c2ccc(CN3CCCC3)cc2)nn1 [Compound 4521]
B. CN1CCN(c2cccc(-c3cn(Cc4ncc(-c5nnc(C(F)F)o5)cc4F)nn3)c2)CC1 [Compound 18924]
C. CC(C)N1CC(c2cccc(-c3cn(Cc4ccc(-c5nnc(C(F)F)o5)cc4)nn3)c2)C1 [Compound 4509]
D. CN(C)Cc1ccc(-c2cn(Cc3ncc(-c4nnc(C(F)F)o4)cc3F)nn2)s1 [Compound 18311]
E. Fc1cc(-c2nnc(C(F)F)o2)cnc1Cn1cc(-c2cc(Cl)cc(CN3CCC3)c2)nn1 [Compound 19091]
Query: Would you mind ranking these compounds by ascending HDAC6 selectivity (fold)? Return the labels ranked in the requested order, please.
Response: E, B, D, C, A

1. FC(F)c1nnc(-c2ccc(Cn3cc(-c4ccnc(N5CCN(C6COC6)CC5)c4)nn3)nc2)o1 [Compound 4594]
2. CN1CCc2ccc(-c3cn(Cc4ncc(-c5nnc(C(F)F)o5)cc4F)nn3)cc2C1 [Compound 19002]
Query: Sorting ascending by HDAC6 selectivity (fold), which comes first: 1 or 2 ? Response format: the label of the selected entry.
Response: 2
(2: 587 fold, 1: 2057 fold)

* * *

- measurement target: human recombinant HDAC1 (Homo sapiens, UniProt Q13547)
- Construct: purchased Enzo Life Science, Inc. BML-SE456
- Sequence (Q13547 whole entry): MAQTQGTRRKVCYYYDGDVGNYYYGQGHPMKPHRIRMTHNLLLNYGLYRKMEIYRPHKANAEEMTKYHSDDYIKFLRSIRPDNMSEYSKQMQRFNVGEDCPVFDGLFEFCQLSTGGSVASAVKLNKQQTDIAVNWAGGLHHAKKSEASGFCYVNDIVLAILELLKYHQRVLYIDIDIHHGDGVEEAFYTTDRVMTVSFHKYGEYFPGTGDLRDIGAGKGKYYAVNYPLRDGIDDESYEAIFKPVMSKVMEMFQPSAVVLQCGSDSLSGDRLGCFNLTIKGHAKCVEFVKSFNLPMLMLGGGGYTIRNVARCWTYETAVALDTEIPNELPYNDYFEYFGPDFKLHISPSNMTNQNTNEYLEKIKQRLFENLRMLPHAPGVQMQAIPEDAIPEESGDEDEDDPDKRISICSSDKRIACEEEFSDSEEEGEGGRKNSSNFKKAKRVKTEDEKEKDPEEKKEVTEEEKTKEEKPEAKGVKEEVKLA
- method summary: HDAC1 enzyme activity inhibition (HDAC Fluorimetric Drug Discovery Kit)
- Format: biochemical
measured endpoint: IC50

# IC50 (compound: "Fc1cc(-c2nnc(C(F)F)o2)ccc1Cn1cc(-c2ccc(N3CCN(C4CCOCC4)CC3)c(F)c2)nn1" ) is > 50 µM

* * *

- measurement target: human recombinant HDAC6 (Homo sapiens)
- Construct: purchased Calbiochem Inc. 382180
- method summary: HDAC6 enzyme activity inhibition (HDAC Fluorimetric Drug Discovery Kit)
- Type: biochemical
- measurement setup: human recombinant HDAC6; IC50 calculated with GraphPad Prism
- Protocol: An experiment was conducted to identify the selectivity of the compound represented by formula I of the present invention to HDAC6 through an experiment on HDAC1 and HDAC6 enzyme activity inhibition. […]
pIC50: −log10 of the molar value.
measured endpoint: pIC50

CCCN1CCN(c2cccc(-c3cn(Cc4ccc(-c5nnc(C(F)F)o5)cc4F)nn3)c2)CC1: 7.66

I. FC(F)c1nnc(-c2ccc(Cn3cc(C4CCN(C5CC6(COC6)C5)CC4)nn3)nc2)o1
II. O=C(O)c1ccc(-c2cn(Cc3ccc(-c4nnc(C(F)F)o4)cc3)nn2)cc1
III. CC(C)(C)C(=O)N1CCC(c2cn(Cc3ccc(-c4nnc(C(F)F)o4)cn3)nn2)CC1
Query: Ordering: ascending pIC50. Reply with the labels, ordered as the question asks.
Response: II, I, III
(II: 5.76, I: 6.55, III: 6.81)

* * *

- measurement target: human recombinant HDAC6 (Homo sapiens)
- Construct: purchased Calbiochem Inc. 382180
- method summary: HDAC6 enzyme activity inhibition (HDAC Fluorimetric Drug Discovery Kit)
- Assay type: biochemical
- measurement setup: human recombinant HDAC6; IC50 calculated with GraphPad Prism
pIC50: −log10 of the molar value.
measured endpoint: pIC50

Please review the entries below; each comes with its answer.
CN1CCC(Nc2cccc(-c3cn(Cc4ccc(-c5nnc(C(F)F)o5)cn4)nn3)c2)CC1: 7.64
FC(F)c1nnc(-c2ccc(Cn3cc(-c4ccco4)nn3)nc2)o1: 7.27
Fc1ccccc1-c1cn(Cc2ccc(-c3nnc(C(F)F)o3)cn2)nn1: 7.51
FC(F)c1nnc(-c2ccc(Cn3cc(-c4ccc5c(c4)CCN(C4COC4)C5)nn3)nc2)o1: 7.24
FC(F)c1nnc(-c2ccc(Cn3cc(-c4cccc(N5CCN(C6CCC6)CC5)c4)nn3)cc2)o1: 7.26

A. CCN1CCc2ccc(-c3cn(Cc4ccc(-c5nnc(C(F)F)o5)cn4)nn3)cc2C1
B. CCC(F)(CC)CN1CCC(c2cn(Cc3ccc(-c4nnc(C(F)F)o4)cn3)nn2)CC1
Query: Param metric = pIC50; output whichever of A , B has the minimum value. Reply with the label of the item you choose.
Response: B
(B: 6.57, A: 7.32)

* * *

- measurement target: human recombinant HDAC6 (Homo sapiens)
- Construct: purchased Calbiochem Inc. 382180
- method summary: HDAC6 enzyme activity inhibition (HDAC Fluorimetric Drug Discovery Kit)
- Type: biochemical
- measurement setup: HDAC1 IC50 / HDAC6 IC50
measured endpoint: HDAC6 selectivity (fold)

a. FC(F)(F)c1nnc(-c2ccc(Cn3nnc(-c4cccs4)n3)nc2)o1 [Compound 4233]
b. FC(F)c1nnc(-c2ccc(Cn3cc(-c4cccc5cc[nH]c45)nn3)cc2)o1 [Compound 4081]
c. Fc1cc(-c2nnc(C(F)F)o2)ccc1Cn1cc(-c2ccc(CN3CCOCC3)cc2)nn1 [Compound 4471]
d. CC(C)(F)CN1CCC(c2cccc(-c3cn(Cc4ccc(-c5nnc(C(F)F)o5)cc4F)nn3)c2)CC1 [Compound 4349]
Query: Lab note: HDAC6 selectivity (fold) ranking, ascending, for the listed compounds. Please list the labels according to the requested order.
Response: d, b, c, a
(d: 137 fold, b: 478 fold, c: 1116 fold, a: 3846 fold)

a. Cc1cc2cc(-c3cn(Cc4ccc(-c5nnc(C(F)F)o5)cn4)nn3)ccc2[nH]1 [Compound 4289]
b. FC(F)c1nnc(-c2ccc(Cn3cc(-c4cccc(-n5ccnc5)c4)nn3)nc2)o1 [Compound 4075]
c. Fc1ccc(-c2cn(Cc3ccc(-c4nnc(C(F)F)o4)cc3)nn2)cc1N1CCNCC1 [Compound 4396]
Query: Put the compounds in ascending order of HDAC6 selectivity (fold). Give me the labels in the order the question wants.
Response: a, c, b

1. Cc1ccccc1-c1cn(Cc2ccc(-c3nnc(C(F)F)o3)cn2)nn1 [Compound 3860]
2. CC1CCN(Cc2c[nH]c3cc(-c4cn(Cc5ccc(-c6nnc(C(F)F)o6)cc5F)nn4)ccc23)CC1 [Compound 4110]
3. Fc1cc(-c2nnc(C(F)F)o2)ccc1Cn1cc(-c2cccc(CN3CCOCC3)c2)nn1 [Compound 4404]
4. OC1(c2cn(Cc3ccc(-c4nnc(C(F)F)o4)cc3F)nn2)COC1 [Compound 4278]
5. FC(F)c1nnc(-c2ccc(Cn3cc(-c4ccc5c(c4)CN(C4COC4)CC5)nn3)nc2)o1 [Compound 4213]
Query: Rank the items in ascending order with respect to HDAC6 selectivity (fold). Give your ranking as a list of the labels in the requested order.
Response: 4, 1, 3, 5, 2

A. O=C(Nc1cccc(-c2cn(Cc3ccc(-c4nnc(C(F)F)o4)cn3)nn2)c1)C1CN(C2COC2)C1 [Compound 4465]
B. FC(F)c1cccc(-c2cn(Cc3ccc(-c4nnc(C(F)F)o4)cc3)nn2)c1 [Compound 4487]
C. FC(F)c1nnc(-c2ccc(Cn3cc(CCc4cn5ccccc5n4)nn3)nc2)o1 [Compound 3822]
Query: Ascending sort, HDAC6 selectivity (fold). Give the labels in the order requested.
Response: C, B, A

* * *

- measurement target: human recombinant HDAC6 (Homo sapiens)
- Construct: purchased Calbiochem Inc. 382180
- Sequence (Q9UBN7 1-1215): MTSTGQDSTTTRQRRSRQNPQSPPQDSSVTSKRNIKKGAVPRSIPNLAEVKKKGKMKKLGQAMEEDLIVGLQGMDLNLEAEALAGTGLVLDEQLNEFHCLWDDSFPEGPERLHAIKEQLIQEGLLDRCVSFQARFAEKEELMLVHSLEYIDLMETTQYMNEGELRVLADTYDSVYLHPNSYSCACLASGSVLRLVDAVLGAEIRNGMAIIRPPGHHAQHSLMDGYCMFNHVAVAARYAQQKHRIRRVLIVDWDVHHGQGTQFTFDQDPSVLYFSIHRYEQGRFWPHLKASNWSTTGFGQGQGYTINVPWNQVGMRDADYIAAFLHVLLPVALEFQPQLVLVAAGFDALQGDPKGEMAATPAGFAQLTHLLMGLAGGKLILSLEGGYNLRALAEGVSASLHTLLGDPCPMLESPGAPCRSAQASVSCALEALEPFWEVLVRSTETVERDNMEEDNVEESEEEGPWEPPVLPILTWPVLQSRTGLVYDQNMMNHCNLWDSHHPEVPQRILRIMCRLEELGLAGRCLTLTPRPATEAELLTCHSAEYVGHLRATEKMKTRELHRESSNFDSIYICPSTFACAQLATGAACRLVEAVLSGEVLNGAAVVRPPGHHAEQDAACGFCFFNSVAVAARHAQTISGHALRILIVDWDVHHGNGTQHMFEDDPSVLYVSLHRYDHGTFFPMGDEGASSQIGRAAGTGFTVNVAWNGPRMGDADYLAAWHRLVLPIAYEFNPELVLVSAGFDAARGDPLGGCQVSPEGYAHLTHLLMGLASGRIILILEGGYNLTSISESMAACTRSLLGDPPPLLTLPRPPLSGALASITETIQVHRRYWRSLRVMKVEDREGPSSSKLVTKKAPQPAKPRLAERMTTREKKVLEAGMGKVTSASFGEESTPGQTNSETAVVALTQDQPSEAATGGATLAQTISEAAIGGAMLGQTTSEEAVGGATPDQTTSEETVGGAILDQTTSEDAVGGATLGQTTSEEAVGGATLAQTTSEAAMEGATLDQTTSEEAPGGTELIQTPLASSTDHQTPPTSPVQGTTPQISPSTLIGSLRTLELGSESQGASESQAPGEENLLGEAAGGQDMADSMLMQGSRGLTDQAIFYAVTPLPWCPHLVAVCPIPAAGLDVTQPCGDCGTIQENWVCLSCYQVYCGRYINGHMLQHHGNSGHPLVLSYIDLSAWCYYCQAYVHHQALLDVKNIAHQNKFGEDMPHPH
- method summary: HDAC6 enzyme activity inhibition (HDAC Fluorimetric Drug Discovery Kit)
- Assay type: biochemical
- measurement setup: human recombinant HDAC6; IC50 calculated with GraphPad Prism
measured endpoint: IC50 (nM)

Here are 2 molecules together with their reported answers.
Fc1cc(-c2nnc(C(F)F)o2)ccc1Cn1cc(-c2cccc(CN3CC(F)C3)c2)nn1: 41.2
CCCc1cn(Cc2ccc(-c3nnc(C(F)F)o3)cn2)nn1: 145

A. OCCCCc1cn(Cc2ccc(-c3nnc(C(F)F)o3)cn2)nn1
B. Fc1cc(-c2nnc(C(F)F)o2)ccc1Cn1cc(-c2cccc(C3CCN(C4COC4)CC3)c2)nn1
Query: I'd appreciate it if you could identify which of A and B has the greater IC50. Indicate which entry you chose by stating its label.
Response: A

1. Fc1cc(-c2nnc(C(F)F)o2)ccc1Cn1cc(C2(F)CCOC2)nn1 (stereo not shown)
2. FC(F)c1nnc(-c2ccc(Cn3cc(C4(F)CCOC4)nn3)nc2)o1 (stereo not shown)
Query: Given 1 and 2 , report the one with the higher recorded IC50. Which one? Tell me its label.
Response: 1

a. CC(C)(C)OC(=O)NC(C)(C)C(=O)Nc1cccc(-c2cn(Cc3ccc(-c4nnc(C(F)F)o4)cn3)nn2)c1
b. CCN1CCc2cc(-c3cn(Cc4ccc(-c5nnc(C(F)F)o5)cn4)nn3)ccc2C1
Query: Pick the one with the larger IC50: a vs b Give the chosen item's label as your response.
Response: b
(b: 44.3 nM, a: 22.1 nM)

A. FC(F)c1nnc(-c2ccc(Cn3cc(C4CN(C5COC5)C4)nn3)nc2)o1
B. FC(F)c1nnc(-c2ccc(Cn3cc(-c4cccc(NC5CCOCC5)c4)nn3)nc2)o1
Query: Look at A and B . Which one has the lower recorded IC50 number? State your choice using its label.
Response: B

a. CN1CC(c2cccc(-c3cn(Cc4ccc(-c5nnc(C(F)F)o5)cc4F)nn3)c2)C1
b. CC(C)N1CCc2cc(-c3cn(Cc4ccc(-c5nnc(C(F)F)o5)cc4F)nn3)ccc2C1
Query: Please choose the item with the lower IC50 value from this pair: a and b Kindly give the label for the entry you pick.
Response: b

P. Fc1ccc(N2CCNCC2)cc1-c1cn(Cc2ccc(-c3nnc(C(F)F)o3)cc2)nn1
Q. Cc1ccc(-c2cn(Cc3ccc(-c4nnc(C(F)F)o4)cc3F)nn2)cc1
Query: So which one has the bigger IC50 here, P or Q ? Please identify the chosen entry by its label.
Response: Q
(Q: 232 nM, P: 19.2 nM)

1. CCN1CC(N2CCC(c3cccc(-c4cn(Cc5ccc(-c6nnc(C(F)F)o6)cc5F)nn4)c3)CC2)C1
2. CC(C)N1CCN(Cc2cccc(-c3cn(Cc4ccc(-c5nnc(C(F)F)o5)cc4)nn3)c2)CC1
Query: Kindly identify the item with the lower IC50 figure among these two: 1 and 2 Bench note: the answer is the label of the chosen record.
Response: 1
(1: 45.2 nM, 2: 112 nM)

P. CCN1CCN(c2cccc(-c3cn(Cc4ccc(-c5nnc(C(F)F)o5)cc4)nn3)c2)CC1
Q. FC(F)c1nnc(-c2ccc(Cn3cc(-c4cccc(CN5CCC(F)(F)CC5)c4)nn3)cc2)o1
R. CCOC(=O)Nc1cccc(-c2cn(Cc3ccc(-c4nnc(C(F)F)o4)cn3)nn2)c1
Query: Rank by IC50 (largest to smallest). List the labels in the requested order.
Response: Q, P, R
